Please consider the recorded AC50 for Type-1 angiotensin II receptor (Homo sapiens) in what follows.
reported metric: AC50

compound	subject of test	obs value
Cc1cc(-c2ccccc2)nnc1NCCN1CCOCC1	Type-1 angiotensin II receptor (Homo sapiens)	> 30 µM
CCCCN1CCCCC1C(=O)Nc1c(C)cccc1C (stereo not given)	Type-1 angiotensin II receptor (Homo sapiens)	> 30 µM
CCCC(=O)N1CCCN(c2nc(N)c3cc(OC)c(OC)cc3n2)CC1	Type-1 angiotensin II receptor (Homo sapiens)	> 30 µM
NC(CO)C(=O)NNCc1ccc(O)c(O)c1O (stereo not given) [BENSERAZIDE]	Type-1 angiotensin II receptor (Homo sapiens)	> 30 µM
C#CCN(C)[C@H](C)Cc1ccccc1	Type-1 angiotensin II receptor (Homo sapiens)	> 10 µM
CO/N=C(\C(=O)N[C@@H]1C(=O)N2C(C(=O)[O-])=C(C[N+]3(C)CCCC3)CS[C@H]12)c1csc(N)n1	Type-1 angiotensin II receptor (Homo sapiens)	> 300 µM
O=C(C[S+]([O-])C(c1ccccc1)c1ccccc1)NO (stereo not given)	Type-1 angiotensin II receptor (Homo sapiens)	> 30 µM
NC[C@H]1O[C@H](O[C@H]2[C@H](O)[C@@H](O[C@H]3O[C@H](CO)[C@@H](O)[C@H](N)[C@H]3O)[C@H](N)C[C@@H]2N)[C@H](O)[C@@H](O)[C@@H]1O	Type-1 angiotensin II receptor (Homo sapiens)	> 10 µM
NS(=O)(=O)c1cc2c(cc1Cl)NCNS2(=O)=O [HYDROCHLOROTHIAZIDE]	Type-1 angiotensin II receptor (Homo sapiens)	> 30 µM
COc1ccc(C(=O)NCc2ccc(OCCN(C)C)cc2)cc1OC [ITOPRIDE]	Type-1 angiotensin II receptor (Homo sapiens)	> 30 µM
O=C(O)CCn1c2c(c3ccccc31)C[C@H](NS(=O)(=O)c1ccc(F)cc1)CC2	Type-1 angiotensin II receptor (Homo sapiens)	> 30 µM
COC(=O)[C@H]1[C@@H](OC(=O)c2ccccc2)C[C@@H]2CC[C@H]1N2C	Type-1 angiotensin II receptor (Homo sapiens)	> 30 µM
CCCCC(C)(O)C/C=C/[C@H]1[C@H](O)CC(=O)[C@@H]1CCCCCCC(=O)OC (stereo not given in full)	Type-1 angiotensin II receptor (Homo sapiens)	> 30 µM
Cc1c(Cl)cccc1Nc1ccccc1C(=O)O	Type-1 angiotensin II receptor (Homo sapiens)	> 30 µM
O=C(Nc1ccccc1)OCC(CN1CCCCC1)OC(=O)Nc1ccccc1 (stereo not given)	Type-1 angiotensin II receptor (Homo sapiens)	> 30 µM

----------
Form: system (Type-1 angiotensin II receptor (Homo sapiens, UniProt P30556)), quantity (AC50), values below. Further: assay procedure not described here.
reported metric: AC50

compound	subject of test	reported metric	obs value
CN1CCN(C(=O)OC2c3nccnc3C(=O)N2c2ccc(Cl)cn2)CC1 (stereo unspecified)	Type-1 angiotensin II receptor (Homo sapiens, UniProt P30556)	AC50	> 30 µM
CN1CC(=O)N2[C@H](c3ccc4c(c3)OCO4)c3[nH]c4ccccc4c3C[C@@H]2C1=O	Type-1 angiotensin II receptor (Homo sapiens, UniProt P30556)	AC50	> 30 µM
O=C(O)c1cc(-c2ccc(F)cc2F)ccc1O	Type-1 angiotensin II receptor (Homo sapiens, UniProt P30556)	AC50	> 10 µM
COC(=O)N[C@H](C(=O)N1CCC[C@H]1c1nc(-c2ccc(-c3ccc(-c4c[nH]c([C@@H]5CCCN5C(=O)[C@@H](NC(=O)OC)C(C)C)n4)cc3)cc2)c[nH]1)C(C)C	Type-1 angiotensin II receptor (Homo sapiens, UniProt P30556)	AC50	> 30 µM
COc1ccccc1OCC(O)COC(N)=O (stereo unspecified)	Type-1 angiotensin II receptor (Homo sapiens, UniProt P30556)	AC50	> 30 µM
C[C@H]1C[C@@H]2[C@H]([C@@H](O)C[C@@]3(C)[C@H]2CC[C@]3(O)C(=O)CO)[C@@]2(C)C=CC(=O)C=C12	Type-1 angiotensin II receptor (Homo sapiens, UniProt P30556)	AC50	> 10 µM
NS(=O)(=O)c1cc(Cl)c(Cl)c(S(N)(=O)=O)c1 [DICHLORPHENAMIDE]	Type-1 angiotensin II receptor (Homo sapiens, UniProt P30556)	AC50	> 10 µM
CCC(C(=O)O)c1ccc(CC(C)C)cc1 (stereo unspecified)	Type-1 angiotensin II receptor (Homo sapiens, UniProt P30556)	AC50	> 30 µM
Cc1ccc(C(=O)c2cc(O)c(O)c([N+](=O)[O-])c2)cc1	Type-1 angiotensin II receptor (Homo sapiens, UniProt P30556)	AC50	> 10 µM
NC(=O)C[S+]([O-])C(c1ccccc1)c1ccccc1 (stereo unspecified)	Type-1 angiotensin II receptor (Homo sapiens, UniProt P30556)	AC50	> 30 µM
CN1CCc2cccc3c2[C@H]1Cc1ccc(O)c(O)c1-3	Type-1 angiotensin II receptor (Homo sapiens, UniProt P30556)	AC50	> 30 µM
